Target: Eukaryotic translation initiation factor 2-alpha kinase 3 (Homo sapiens)
Assay: block of dimerizer-induced PERK translation repression, primary screen, PERK inhibitor project, CHO PERK-DD cells, SEAP luminescence, HTS (AID 1416);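 further: PERK kinase domain activated by AP20187 dimerizer at 100 nM; 0% = DMSO with dimerizer and 100% = rapamycin at 8.4 µM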
Conditions: CHO PERK-DD fusion, SEAP luminescence translation reporter; at 5.6 µM; hits give high values
Out of some 220,000 compounds screened, about 370 (0.17%) were called active. The list comes from a sample in which actives are over-represented; it also holds close analogues and randomly drawn compounds.
measured attribute: inhibition (%)
I only need the number, in %, no unit after it.

See these solved cases before continuing.
- compound: "CCC(C)NCCOCCOc1ccc(Br)cc1C (configuration not stated)"
  measurement unit: "%"
  inhibition: -0.24
- compound: "CCOC(=O)CN1C(=O)N[C@@H](c2ccc(Br)cc2)C(C(C)=O)=C1C"
  measurement unit: "%"
  inhibition: 0.08
- compound: "CN(c1ccc(OCC(=O)NC2=NCCS2)cc1)S(=O)(=O)c1ccc(F)cc1"
  measurement unit: "%"
  inhibition: 1.79
- compound: "NC(=O)c1ccc(N2CCOCC2)nc1"
  measurement unit: "%"
  inhibition: 2.55
- compound: "CC(=O)NC(Cc1ccc(F)c(F)c1)C(=O)NC1CCN(C(=O)c2ccc(C)cc2)CC1 (configuration not stated)"
  measurement unit: "%"
  inhibition: 0.06

Return inhibition (reported value) for this compound: CS(=O)(=O)N(CC(=O)Nc1ccc(F)cc1F)c1cccc([N+](=O)[O-])c1
1.41

Return inhibition (reported value) for this compound: CC1=NN(C(C)C)C(=O)C1
0.1

Return inhibition (reported value) for this compound: CCc1cc(C(N)=O)c(NC(=O)c2ccc(OC)cc2)s1
0.45

Return inhibition (reported value) for this compound: Cc1c(C=O)n(C)n(-c2ccccc2)c1=O
0.28

Return inhibition (reported value) for this compound: CCCCc1nnc(NC(=O)CSc2nc(N)cc(=O)[nH]2)s1
0.08

Return inhibition (reported value) for this compound: CN(C)c1ccc(NC(=O)CSc2n[nH]c(-c3ccco3)n2)cc1
-0.7

Return inhibition (reported value) for this compound: O=C(NC(=O)N1CCOCC1)c1ccccc1
0.27

###

Target: Eukaryotic translation initiation factor 2-alpha kinase 3 (Homo sapiens) (UniProt Q9NZJ5)
Sequence (Q9NZJ5 whole entry, looked up, the tested form may be a part): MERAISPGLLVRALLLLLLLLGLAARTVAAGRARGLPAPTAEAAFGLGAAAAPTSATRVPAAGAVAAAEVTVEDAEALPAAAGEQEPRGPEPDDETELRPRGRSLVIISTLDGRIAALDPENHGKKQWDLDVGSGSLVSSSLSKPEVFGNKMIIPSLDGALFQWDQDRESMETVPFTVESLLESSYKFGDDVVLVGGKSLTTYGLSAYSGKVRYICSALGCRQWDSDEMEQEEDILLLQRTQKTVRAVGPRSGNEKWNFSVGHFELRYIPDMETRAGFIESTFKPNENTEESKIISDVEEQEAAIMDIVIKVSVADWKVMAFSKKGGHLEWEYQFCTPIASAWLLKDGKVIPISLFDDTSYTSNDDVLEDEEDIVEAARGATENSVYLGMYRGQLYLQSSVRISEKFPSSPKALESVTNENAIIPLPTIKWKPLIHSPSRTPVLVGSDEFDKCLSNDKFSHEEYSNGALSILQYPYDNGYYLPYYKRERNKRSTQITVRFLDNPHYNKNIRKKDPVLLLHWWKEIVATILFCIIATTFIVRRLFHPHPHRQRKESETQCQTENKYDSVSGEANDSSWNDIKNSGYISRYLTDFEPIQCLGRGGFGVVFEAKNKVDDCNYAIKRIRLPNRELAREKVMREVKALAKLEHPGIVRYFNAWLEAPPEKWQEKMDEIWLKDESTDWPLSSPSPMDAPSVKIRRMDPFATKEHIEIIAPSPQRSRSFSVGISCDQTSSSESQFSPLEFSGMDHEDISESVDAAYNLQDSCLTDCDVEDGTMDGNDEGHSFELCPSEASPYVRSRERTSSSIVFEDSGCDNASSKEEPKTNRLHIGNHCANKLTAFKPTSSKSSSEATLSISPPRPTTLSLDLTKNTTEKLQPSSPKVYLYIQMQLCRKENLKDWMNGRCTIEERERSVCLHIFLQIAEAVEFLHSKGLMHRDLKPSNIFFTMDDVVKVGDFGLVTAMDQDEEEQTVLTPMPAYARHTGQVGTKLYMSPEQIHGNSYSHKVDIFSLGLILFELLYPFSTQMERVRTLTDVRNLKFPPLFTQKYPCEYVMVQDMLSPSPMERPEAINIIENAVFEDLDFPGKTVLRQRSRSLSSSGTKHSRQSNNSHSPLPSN
Experiment: block of dimerizer-induced PERK translation repression, primary screen, PERK inhibitor project, CHO PERK-DD cells, SEAP luminescence, HTS (AID 1416);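 further: PERK kinase domain activated by AP20187 dimerizer at 100 nM; 0% = DMSO with dimerizer and 100% = rapamycin at 8.4 µM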
Conditions: CHO PERK-DD fusion, SEAP luminescence translation reporter; at 5.6 µM; hits give high values
In all, about 220,000 compounds went through this assay and about 370 (0.17%) were called active. The full list was thinned out, with actives kept by preference.
Listing of recorded inhibition by entry.
I only need the number, in %, no unit after it.

See these solved cases before continuing.
- compound: "Cc1cccc(C(=O)Nc2ccc(C(=O)/C=C/c3cccs3)cc2)c1"
  measured attribute: "inhibition"
  test value: -1.44
- compound: "CC(C)CCSc1ncnc2c1oc1nc3c(cc12)COC(C)(C)C3"
  measured attribute: "inhibition"
  test value: -0.1
- compound: "O=C(NC(=O)c1cc(OCC(F)(F)F)ccc1OCC(F)(F)F)Nc1ccccc1"
  measured attribute: "inhibition"
  test value: 0.87
- compound: "Cc1c(C(=O)N(Cc2ccccc2)Cc2cccnc2)cnn1-c1ccc(F)cc1"
  measured attribute: "inhibition"
  test value: -0.72
- compound: "CCOC(=O)Cc1ncccc1C(=O)Nc1ccc(OC(F)(F)F)cc1"
  measured attribute: "inhibition"
  test value: 0.3
- compound: "CCc1ccc(N(CC(=O)Nc2sc3c(c2C(=O)OC)CCCC3)S(C)(=O)=O)cc1"
  measured attribute: "inhibition"
  test value: 0.54
- compound: "O=[N+]([O-])/C(N=Nc1ccccc1)=N\\Nc1ccccc1"
  measured attribute: "inhibition"
  test value: 0.56
- compound: "O=C(c1cccc(S(=O)(=O)N2CCCC2)c1)N(Cc1ccco1)C1CCS(=O)(=O)C1 (configuration not stated)"
  measured attribute: "inhibition"
  test value: 0.31
- compound: "CCOc1c(Br)cc(/C=C2\\C(=O)N(CCC#N)N=C2C)cc1OC"
  measured attribute: "inhibition"
  test value: 1.06
- compound: "C=C(C)CSc1nnc(-c2ccc(C)cc2)n1N"
  measured attribute: "inhibition"
  test value: 0.46

Return inhibition (reported value) for this compound: COc1cc(/C=C/C(=O)OCC(=O)NC(=O)NCc2ccccc2)ccc1OCC#N
0.97

Return inhibition (reported value) for this compound: COc1ccccc1N=C(C)C1=C(O)COC1=O
0.22

Return inhibition (reported value) for this compound: O=S(=O)(Nc1ncccn1)c1ccc(NS(=O)(=O)c2cccc(Cl)c2Cl)cc1
0.64

###

Target: Eukaryotic translation initiation factor 2-alpha kinase 3 (Homo sapiens) (UniProt Q9NZJ5)
Test: block of dimerizer-induced PERK translation repression, primary screen, PERK inhibitor project, CHO PERK-DD cells, SEAP luminescence, HTS (AID 1416);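 further: PERK kinase domain activated by AP20187 dimerizer at 100 nM; 0% = DMSO with dimerizer and 100% = rapamycin at 8.4 µM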
Conditions: CHO PERK-DD fusion, SEAP luminescence translation reporter; at 5.6 µM; hits give high values
The campaign covered roughly 220,000 compounds. About 370 (0.17%) were called active. The list comes from a sample in which actives are over-represented; it also holds close analogues and randomly drawn compounds.
Listing of recorded inhibition by entry.
I only need the number, in %, no unit after it.

See these solved cases before continuing.
- molecule: "C#CCNC(=O)C1=C[C@@H](c2ccccc2)[C@H](CCCO)[C@@H](OCC)O1"
  measurement unit: "%"
  test value: 0.82
- molecule: "C=C(C)C1CC=C(C)/C(=N\\NC(=O)CNc2ccccc2OC)C1 (stereo unspecified)"
  measurement unit: "%"
  test value: 0.13
- molecule: "COc1ccc2[nH]c(=O)c(CNc3ccc(C)c(C)c3)cc2c1"
  measurement unit: "%"
  test value: 0.88
- molecule: "O=C(Nc1ccccc1)OCc1cn(-c2ccc(Cl)cc2)nn1"
  measurement unit: "%"
  test value: 1.21

Return inhibition (reported value) for this molecule: N#Cc1c(NC(=O)c2ccc(N3CCOCC3)c([N+](=O)[O-])c2)sc2c1CCCC2
0.19

Return inhibition (reported value) for this molecule: Cc1cc(NC(=O)COC(=O)COc2ccc(Cl)cc2C)c([N+](=O)[O-])cc1C
0.97

Return inhibition (reported value) for this molecule: CCCS(=O)(=O)N1CCC(CCOc2ccccc2)(C(=O)OCC)CC1
-0.64

Return inhibition (reported value) for this molecule: CCN(CC)CCOC(=O)c1ccc(NC(=O)CNC(=O)c2ccccc2)cc1
2.02

Return inhibition (reported value) for this molecule: COc1cccc(Nc2nnc(SCC(=O)N3CC(=O)Nc4ccccc43)s2)c1
0.32

Return inhibition (reported value) for this molecule: COc1ccc2[nH]c3ccc(OC)cc3c2c1
-0.09

Return inhibition (reported value) for this molecule: O=S(=O)(NCC1OCCc2ccccc21)c1ccccc1 (stereo unspecified)
0.47

###

Molecular target: Eukaryotic translation initiation factor 2-alpha kinase 3 (Homo sapiens)
Assay: block of dimerizer-induced PERK translation repression, primary screen, PERK inhibitor project, CHO PERK-DD cells, SEAP luminescence, HTS (AID 1416);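 further: PERK kinase domain activated by AP20187 dimerizer at 100 nM; 0% = DMSO with dimerizer and 100% = rapamycin at 8.4 µM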
Conditions: CHO PERK-DD fusion, SEAP luminescence translation reporter; at 5.6 µM
The campaign covered roughly 220,000 compounds. About 370 (0.17%) were called active.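 How the source made its calls: active means inhibition above the mean inhibition of all tested compounds plus 3 SD, set separately per screening campaign (cut at about 2.9% in these data); inactive means the rest.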 The sample holds actives, similar compounds and a random draw of the others, so the mix is not that of the screen.
Your reply should match one of these outcome classes. active, inactive

Please review the following examples before continuing.
- compound: "Cn1c(=O)c2cc(S(=O)(=O)NCCC(=O)Nc3ccc(F)cc3F)ccc2n(C)c1=O"
  group label: "inactive"
- compound: "Cc1cc(NC(=O)/C=C/C(=O)N(c2ccccc2C)C(C(=O)NC2CCCC2)c2ccc(F)cc2)no1 (stereo unspecified)"
  group label: "inactive"
- compound: "CSCC[C@H](NC(=O)NCCc1ccc(F)cc1)C(=O)O"
  group label: "inactive"
- compound: "COCc1c(C(=O)OCc2c(C)noc2C)oc2ccccc12"
  group label: "inactive"
- compound: "CC(C)C[C@H](NC(=O)NCCc1ccc(Cl)cc1)C(=O)O"
  group label: "active"
- compound: "Cc1noc(C)c1C(=O)OCC(=O)N1CCN(S(=O)(=O)c2ccc3ccccc3c2)CC1"
  group label: "inactive"
- compound: "C[C@H](NC(=O)NCCc1ccccc1)C(=O)O"
  group label: "inactive"
- compound: "Cc1ccccc1C1=N/C(=C/c2cccnc2)C(=O)O1"
  group label: "inactive"

In this assay, the call recorded for CCOCCn1c(-c2ccccc2)nc2ccccc21 was what?
inactive

In this assay, the call recorded for CC(=O)c1ccc2c(c1)OCCOCCOc1ccc(C(C)=O)cc1OCCOCCO2 was what?
inactive

In this assay, the call recorded for COCc1c(C(=O)N/N=C/C2CC=CCC2)nnn1-c1nonc1N (stereo unspecified) was what?
inactive
